Documented Kd across a set of binders
- measuredOn: T1, Mcl-1, Q07820
- T1 chain: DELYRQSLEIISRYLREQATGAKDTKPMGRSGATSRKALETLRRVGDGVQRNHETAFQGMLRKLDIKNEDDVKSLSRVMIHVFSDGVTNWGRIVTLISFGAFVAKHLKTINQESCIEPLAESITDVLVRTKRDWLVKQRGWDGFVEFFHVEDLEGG
- assayProtocol: fluorescence polarisation, direct titration of receptor into 10 nM labelled peptide

PAKKMTLSEIYRWICDNFPYYKNAGI [FOXJ2]; > 10 µM
TRRSMVFARHLREVGDEFRSRHLNST [POFUT2]; > 10 µM

# input Recorded Kd of AIILCNVCGNLCTDCDRFLHLHRRTK [MYCBP2] , please.
# output > 10 µM
